# target.entity: GsLDH (Geobacillus stearothermophilus)
# Sequence (P00344 whole entry): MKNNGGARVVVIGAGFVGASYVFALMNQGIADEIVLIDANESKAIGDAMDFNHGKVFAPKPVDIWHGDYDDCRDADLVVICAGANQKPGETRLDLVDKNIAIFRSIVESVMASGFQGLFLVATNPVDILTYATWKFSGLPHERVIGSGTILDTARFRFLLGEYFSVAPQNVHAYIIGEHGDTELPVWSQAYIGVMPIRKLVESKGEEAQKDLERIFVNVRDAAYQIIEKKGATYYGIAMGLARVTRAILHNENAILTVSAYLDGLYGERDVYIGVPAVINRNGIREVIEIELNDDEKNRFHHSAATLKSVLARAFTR
# measurement.protocol: Isothermal titration calorimetry of cofactor binding to GsLDH
# particulars: K d, WT with pyruvate, presence of FBP, 30°C
pKd: −log10 of the molar value.

[
  {
    "compound": "NC(=O)c1ccc[n+]([C@@H]2O[C@H](COP(=O)([O-])OP(=O)(O)OC[C@H]3O[C@@H](n4cnc5c(N)ncnc54)[C@H](O)[C@@H]3O)[C@@H](O)[C@H]2O)c1 [NAD^+]",
    "pKd": 5.80
  }
]
